- target: CTNNB1; further: test concentration or dose not given here
- experimental_parameters: ASO
These antisense oligonucleotides have a phosphorothioate backbone; sugars and methylation of C are not fully specified.
Binarize remaining target (mRNA or protein) (fraction of control) at 0.5; below is Criterion met, at or above is Criterion not met.

Check if remaining target (mRNA or protein) (fraction of control) falls below 0.5 for CCTCTCAGCAACTCTACAGG .
Criterion met

Consider the sequence TAGCAGTTTTGTCAGTTCAG . Is its remaining target (mRNA or protein) (fraction of control) strictly less than 0.5?
Criterion not met

Please check: remaining target (mRNA or protein) (fraction of control) for CAAAACAAGGTTCCAAATAA , strictly under 0.5 or not?
Criterion not met

Is remaining target (mRNA or protein) (fraction of control) of GCACGAACAAGCAACTGAAC strictly below 0.5?
Criterion met

I'd appreciate it if you could check whether TAGAGTGATTATGAATTAAT has remaining target (mRNA or protein) (fraction of control) smaller than 0.5.
Criterion not met

In the record for AGGTGCATGATTTGCGGGAC , is remaining target (mRNA or protein) (fraction of control) less than 0.5?
Criterion not met

Lab log: compare recorded remaining target (mRNA or protein) (fraction of control) with 0.5; is it strictly lower for CCTCTGATAACAATTCGGTT ?
Criterion not met

Strictly below 0.5 in remaining target (mRNA or protein) (fraction of control)? AGCTTGAGTAGCCATTGTCC
Criterion met

Please indicate whether the reported remaining target (mRNA or protein) (fraction of control) of TGTTTTCAATGGGAGAATAA is strictly below 0.5.
Criterion not met

Answer whether the sequence CTAAAGGATGATTTACAGGT has remaining target (mRNA or protein) (fraction of control) strictly less than 0.5
Criterion not met

Please state whether remaining target (mRNA or protein) (fraction of control) is below 0.5 for CTGTCAGAGGAGCTGTGGCT
Criterion not met

Please check: remaining target (mRNA or protein) (fraction of control) for TTGCTGCCAGTGACTAACAG , strictly under 0.5 or not?
Criterion met

Find out if reported remaining target (mRNA or protein) (fraction of control) for TCGCCACACCTTCATTCCTA is less than 0.5
Criterion met

In the record for CGACCTGCGGTGGCGGCTCG , is remaining target (mRNA or protein) (fraction of control) less than 0.5?
Criterion met

Decide: remaining target (mRNA or protein) (fraction of control) of CCCCTCGCTCTCCGCTCCCG strictly below 0.5?
Criterion met
